Every entry's value here was drawn from paper PMC9167512.

substrate: Cc1ccc(O)c(O)c1; assay: purified protein; assay type: biochemical, Tetranychus urticae; settings: 0.1 M PBS pH 7.5, 25 °C, O2 co-substrate (air), Fe enzyme, kcat corrected for iron content
MEASURED_PROPERTY: kcat/Km

Given the protein TuDOG7 (Tetranychus urticae) (protein) ERSIEILNHDATVIDCARYKREANQHKCVITPFTTEGPYFLPDDYERSDITDGYTGVNLNLTLLLTNAKDCSPLSNYYVHIWNANAMGHYSGVKEFNFFDHPTFRPKPINNLRFLRGYQITNEDGLVNFNTIIPGWYFGRCIHIHVEIYDKNTTDGHAVSYIGQLYFNREMPAALKLIDPYSQNNNELTLNDQDIVFALSRGSDTILELIPEGNGYSASYVLSIDPTVKVENSVLPFEDPRNVSFIEH , what is its reported kcat/Km?
450 M⁻¹ s⁻¹

What do you get for TuDOG11 (Tetranychus urticae) (protein, signal peptide removed, N-terminal 6xHis kept, pJExpress 411, E. coli BL21(DE3), codon optimized (ATUM), 25-37 kDa) HLQRPGKFLPHDRSIVDCARYKREANQHTCVLAPFTTEGPYFLPDDLERSDITDGQTGVNLDLNLKLTNAKDCSPLSNYFVHVWQANALGHYSGVNELFPVGFRPKPISGERFLRGYQKTNEDGEVNFKTIIPGWYVGRCIHIHVEVYAKNNTDGNAVNYIGQLYFERDIPSSLRLVEPYSTNVNEITLNDSDGVYLLTHGNDTLIDLVPQESGFRTDYIVAIDPDVSIKYDWLDI ?
367 M⁻¹ s⁻¹
